Attribution: patent US20220010021A1

Would you kindly list Emax for each of these binders?
- tested_system: human FGFR1c + KLB receptor complex on HEK293 iLite FGF21 reporter cells (human, UniProt P11362 22-822; Q86Z14 1-1044)
- Sequence (P11362 22-822, chain 1 of 2): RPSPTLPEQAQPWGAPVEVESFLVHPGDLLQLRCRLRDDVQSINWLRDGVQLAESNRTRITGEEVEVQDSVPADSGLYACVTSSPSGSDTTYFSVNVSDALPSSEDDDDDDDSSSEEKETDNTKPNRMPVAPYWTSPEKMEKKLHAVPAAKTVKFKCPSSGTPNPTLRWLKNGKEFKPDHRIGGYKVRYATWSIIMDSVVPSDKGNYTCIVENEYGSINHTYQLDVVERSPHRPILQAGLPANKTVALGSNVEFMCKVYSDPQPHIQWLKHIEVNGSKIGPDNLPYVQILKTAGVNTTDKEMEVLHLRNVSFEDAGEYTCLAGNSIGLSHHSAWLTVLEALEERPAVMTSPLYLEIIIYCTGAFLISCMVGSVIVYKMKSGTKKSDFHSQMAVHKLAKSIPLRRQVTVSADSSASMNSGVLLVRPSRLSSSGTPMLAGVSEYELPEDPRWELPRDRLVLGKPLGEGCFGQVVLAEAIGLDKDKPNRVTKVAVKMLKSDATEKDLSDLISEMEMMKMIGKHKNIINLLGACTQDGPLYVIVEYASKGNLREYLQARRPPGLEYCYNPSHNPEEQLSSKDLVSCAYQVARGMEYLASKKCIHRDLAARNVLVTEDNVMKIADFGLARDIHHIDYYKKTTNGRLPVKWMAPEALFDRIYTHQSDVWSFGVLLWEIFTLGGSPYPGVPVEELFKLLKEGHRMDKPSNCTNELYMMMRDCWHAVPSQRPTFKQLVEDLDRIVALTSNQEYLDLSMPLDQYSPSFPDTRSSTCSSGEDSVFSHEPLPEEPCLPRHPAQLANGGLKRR
- Sequence (Q86Z14 whole entry, chain 2 of 2): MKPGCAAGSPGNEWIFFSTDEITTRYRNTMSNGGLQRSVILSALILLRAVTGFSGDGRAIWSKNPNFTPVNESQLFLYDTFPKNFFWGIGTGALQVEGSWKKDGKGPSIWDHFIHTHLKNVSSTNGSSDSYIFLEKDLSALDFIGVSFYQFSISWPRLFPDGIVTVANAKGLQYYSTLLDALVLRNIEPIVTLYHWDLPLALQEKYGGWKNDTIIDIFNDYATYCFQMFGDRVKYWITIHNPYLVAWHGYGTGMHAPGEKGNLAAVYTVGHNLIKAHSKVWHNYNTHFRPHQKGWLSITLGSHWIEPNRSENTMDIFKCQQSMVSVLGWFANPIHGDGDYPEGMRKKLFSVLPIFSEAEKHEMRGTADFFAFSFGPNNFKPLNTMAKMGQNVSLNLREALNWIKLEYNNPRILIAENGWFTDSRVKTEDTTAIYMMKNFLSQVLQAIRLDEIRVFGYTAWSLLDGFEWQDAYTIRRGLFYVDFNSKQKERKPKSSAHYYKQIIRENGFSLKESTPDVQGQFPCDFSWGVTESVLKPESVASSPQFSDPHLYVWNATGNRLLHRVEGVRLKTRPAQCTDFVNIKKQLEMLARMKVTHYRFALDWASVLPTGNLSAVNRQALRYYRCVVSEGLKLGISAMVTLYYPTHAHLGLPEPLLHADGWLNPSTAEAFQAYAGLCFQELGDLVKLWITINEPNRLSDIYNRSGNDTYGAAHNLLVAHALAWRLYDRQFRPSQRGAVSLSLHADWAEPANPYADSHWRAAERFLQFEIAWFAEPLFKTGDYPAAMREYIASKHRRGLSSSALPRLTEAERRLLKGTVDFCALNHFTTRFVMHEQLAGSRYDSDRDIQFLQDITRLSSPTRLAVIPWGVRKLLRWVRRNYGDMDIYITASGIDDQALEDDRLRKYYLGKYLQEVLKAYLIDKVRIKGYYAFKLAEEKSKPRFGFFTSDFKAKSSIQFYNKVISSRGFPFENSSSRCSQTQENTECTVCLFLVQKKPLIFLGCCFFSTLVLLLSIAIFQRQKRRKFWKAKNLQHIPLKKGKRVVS
- method_description: cell-based or functional assay
Report only the number, with the unit % understood.

Query block: Looking for the measured Emax of Ab0457 (antibody, IgG4, V domains shown) VH: QVTLKESGPVLVKPTETLTLTCTVSGFSLSNARVGVSWIRQPPGKALEWLAHIFSNDEKSYSTSLKSRLTISKDTSKSQVVLTMTNMDPVDTATYYCARSVVTGGYYYEGMDVWGQGTTVTVSS VL: SYVLTQPPSVSVAPGQTARITCGGSNIGSESVHWYQQKPGQAPVLVVYSASDRPSGIPERFSGSNSGNTATLTISRVEAGDEADYYCQVWEGESDHVVFGGGTKLTVLG , can you help?
Result block: 1520

Query block: Now the binder Ab0330 (antibody, IgG4, V domains shown) VH: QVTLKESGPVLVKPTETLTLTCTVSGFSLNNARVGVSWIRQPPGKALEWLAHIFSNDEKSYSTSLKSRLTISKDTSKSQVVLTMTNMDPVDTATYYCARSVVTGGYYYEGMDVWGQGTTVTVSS VL: SYVLTQPPSVSVAPGQTARITCGGSNIGSESVHWYQQKPGQAPVLVVYSESDRPSGIPERFSGSNSGNTATLTISRVEAGDEADYYCQVWAGESDHVVFGGGTKLTVLG
Result block: 932

Query block: Now the binder Ab0337 (antibody, IgG4, V domains shown, IgG4 PE) VH: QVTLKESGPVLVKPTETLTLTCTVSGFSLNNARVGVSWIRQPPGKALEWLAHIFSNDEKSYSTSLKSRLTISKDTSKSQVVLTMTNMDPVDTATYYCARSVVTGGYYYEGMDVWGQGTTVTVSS VL: SYVLTQPPSVSVAPGQTARITCGGSNIGSESVHWYQQKPGQAPVLVVYSHSDRPSGIPERFSGSNSGNTATLTISRVEAGDEADYYCQVWEGESDHVVFGGGTKLTVLG
Result block: 1030
